# procedure.details: qHTS assay to identify small molecule antagonists of the retinoid-related orphan receptor gamma (ROR-gamma) signaling pathway - cell viability counter screen (AID 1159520); further: on the % scale 0 is the no-effect control and ±100 the full control effect; nearly all actives have a fitted effect of over 50% in size
# run.parameters: Tet-on RORgamma CHO cells viability, ATP luminescence, 16 h; series mostly up to 92.4 µM
Inconclusive results are not listed. Calls of active or inactive are those of the source. The call rests on the fitted dose curve; in most records, active means well fitted cell-killing curve with a large enough effect in the repeat runs; inconclusive means weak or mixed curves, or effect the other way; inactive means no such curve, though single readings can be large or run the other way.
reported.metric: activity, negative = cytotoxicity

| structure.notation | result |
| --- | --- |
| C/C=C/C=C/CCCCCCCO | inactive |
| CCN(CC)CCNC(=O)c1ccc(NC(C)=O)cc1 | inactive |
| O=C(O)Cc1ccc(-c2ccccc2)cc1 | inactive |

###

# target: Thyrotropin-releasing hormone receptor (Homo sapiens) (UniProt P34981)
# Sequence (P34981 whole entry, looked up): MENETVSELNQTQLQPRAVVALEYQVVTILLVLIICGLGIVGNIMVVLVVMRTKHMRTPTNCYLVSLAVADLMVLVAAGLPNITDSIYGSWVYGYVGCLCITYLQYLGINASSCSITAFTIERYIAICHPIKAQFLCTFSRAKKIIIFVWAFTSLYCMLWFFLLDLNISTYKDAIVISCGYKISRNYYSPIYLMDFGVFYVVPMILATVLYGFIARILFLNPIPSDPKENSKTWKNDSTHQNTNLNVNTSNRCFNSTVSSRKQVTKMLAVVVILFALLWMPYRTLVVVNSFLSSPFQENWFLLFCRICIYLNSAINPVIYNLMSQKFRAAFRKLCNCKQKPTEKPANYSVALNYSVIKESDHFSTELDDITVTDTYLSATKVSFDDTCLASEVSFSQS
# procedure.details: qHTS assay to identify small molecule agonists of the thyrotropin-releasing hormone receptor (TRHR) signaling pathway (AID 1346891);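 further: HEK293 cells expressing TRHR with calcium dye readout; on the % scale 0 is the no-effect control and ±100 the full control effect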
# run.parameters: TRHR-HEK293 calcium fluorescence, agonist mode; series mostly up to 57.6 µM
Activity calls are given as the source filed them. The call rests on the fitted dose curve.
reported.metric: activation

Here's what some known entries look like.
| molecule | activation |
| --- | --- |
| CC(C)c1nnc2ccc(-c3ocnc3-c3cc(F)ccc3F)cn12 | inactive |
| CN1CCN(c2c(F)cc3c(=O)c(C(=O)O)cn4c3c2OCN4C)CC1 | 0.19% [at 11.8 µM] (inactive) |
| C1COCO1 | inactive |
| Oc1ccc(Nc2ccccc2)cc1 | inactive |
| CC(C)OCC1CO1 (stereo unspecified) | inactive |

Consider the record given below.
-- ask Reported activation, molecule COC(=O)[C@@H]1CC2=CC(=O)CC[C@]2(C)[C@@]23O[C@@H]2C[C@@]2(C)[C@@H](CC[C@@]24CCC(=O)O4)[C@H]13 : ____
-- reply inactive

###

# procedure.details: qHTS RealTime-Glo MT Cell Viability Assay in HepG2 cells - 24 hour (AID 1224867); further: nearly all actives have a fitted effect of over 50% in size
# run.parameters: RealTime-Glo luminescence; series mostly up to 76.8 µM
Records with an inconclusive call do not appear. Calls of active or inactive are those of the source. The call rests on the fitted dose curve; in most records, active means well fitted cell-killing curve with a large enough effect in the repeat runs; inconclusive means weak or mixed curves; inactive means flat fitted curve, though single readings scatter.
Please answer using one outcome listed in active, inactive

Please review the following examples before continuing.
| molecule | assigned.category |
| --- | --- |
| CN1C(=O)CC(C)(c2ccccc2)C1=O (stereo not given) | inactive |
| Cc1ccc(Nc2nccc(N(C)c3ccc4c(C)n(C)nc4c3)n2)cc1S(N)(=O)=O | inactive |
| CC(=O)Oc1ccc(C(=C2CCCCC2)c2ccc(OC(C)=O)cc2)cc1 | inactive |
| C[N+]1(C)CCC(=C(c2ccccc2)c2ccccc2)CC1 | inactive |
| CO[C@@]12[C@H](COC(N)=O)C3=C(C(=O)C(C)=C(N)C3=O)N1C[C@@H]1N[C@@H]12 | active |
| Cc1ccc(S(=O)(=O)NC2CCCCC2)cc1 | inactive |
| CCc1nn(CCCN2CCN(c3cccc(Cl)c3)CC2)c(=O)n1CCOc1ccccc1 | active |
| CCCOC(=O)c1ccc(N)cc1 | inactive |
| CN(C)C(=O)Nc1ccc(Oc2ccc(Cl)cc2)cc1 | inactive |
| CCCCC(CC)CNCC(CC)CCCC (stereo not given) | inactive |

-- ask Kindly provide the recorded test outcome for the following molecule: CN1Cc2cc(C(=O)N3CCC(C4CCNCC4)CC3)ccc2N[C@@H](CC(=O)O)C1=O
-- reply inactive

###

# procedure.details: qHTS assay to identify small molecule agonists of H2AX - cell viability counter screen (AID 1224847);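 further: wild-type CHO-K1 cells; top concentration of the series differs between compounds; on the % scale 0 is the no-effect control and ±100 the full control effect; nearly all actives have a fitted effect of over 30% in size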
# run.parameters: CHO-K1 viability, CellTiter-Glo luminescence, 3 h; series mostly up to 154 µM
Results filed as inconclusive are left out. Active and inactive are the calls of the source. Calls come from the whole dose curve.
Please answer using one outcome listed in class 1 = active, class 0 = inactive

Worked examples, 3 molecules total:
| molecule | assigned.category |
| --- | --- |
| CC(=O)[C@H]1CC[C@H]2[C@@H]3C[C@H](C)C4=CC(=O)CC[C@]4(C)[C@H]3[C@@H](O)C[C@]12C | class 0 |
| CCCCCCCCCCCC[N+](C)(C)CCCS(=O)(=O)[O-] | class 0 |
| Cc1oncc1C(=O)Nc1ccc(C(F)(F)F)cc1 | class 0 |

-- ask # fetch the recorded call for N#C[C@@H]1C[C@@H]2C[C@@H]2N1C(=O)[C@@H](N)C12CC3CC(CC(O)(C3)C1)C2 here
-- reply class 0

-- ask Hi, do you know how Cn1c(=O)c2c(ncn2CC(=O)O)n(C)c1=O came out in this test?
-- reply class 0

-- ask Please state the recorded outcome for this molecule: O=C(O)c1cccc(O)c1
-- reply class 0
